Target: T1, HMGB1 A box (termed HMGB1) (UniProt P09429 9-78)
T1 sequence: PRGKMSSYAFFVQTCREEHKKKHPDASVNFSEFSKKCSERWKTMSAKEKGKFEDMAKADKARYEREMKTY
Assay: fluorescence titration; 200 mM K+; K+-containing buffer; 20 or 200 mM K+ in Fig S9 titrations (10 uM HMGB1); full buffer, pH and temperature of binding assays not in material (phase-separation assays: 10 mM HEPES pH 7.4, 20 mM K+, 10% PEG8K)
Details: protein: recombinant; intramolecular parallel G4, K+
property-name: pKd
Note: pKd values are expressed as the negative base-10 logarithm of concentration in M.

// AGGGCGGTGTGGGAAGAGGGAA (structured_DNA) [22R (GQKRAS)] : pKd value = 5.37
